This collection of values is drawn from ChEMBL document CHEMBL1201862.

# System: NCI-H522
# experimentSummary: NCI tumour cell line growth inhibition, 48 h
Activity calls are given as the source filed them. Rule as the data show it: active = GI50 up to about 1.1 µM and inactive = higher.
observable: GI50

The compound `CCN(CC)c1ccc2cc(C(=O)Nc3ccccc3OC)c(=N)oc2c1` showed GI50 equal to 10.4 µM (inactive)

Looking up COc1ccc(C2c3cc(OC)c(OC)cc3C(Cc3ccc([N+](=O)[O-])cc3)C2c2ccc([N+](=O)[O-])cc2)cc1OC (stereo not given) , I see its GI50 listed as 51.3 µM (inactive)

GI50 recorded for this compound, `CCOC(=O)/C(=C\c1c[nH]c2ccccc12)P(=O)(OCC)OCC` , is 26.8 µM (inactive)

Please fill in: GI50 reported for `Nc1ccc(Oc2ccc(C34CC5CC(C3)CC(c3ccc(Oc6ccc(N)c(O)c6)cc3)(C5)C4)cc2)cc1O` = 1.54 µM (inactive)

Form field GI50, entry `Cc1nnc(N/N=C2/C(=O)Nc3c(Cl)cc(Cl)cc32)n1N` : 34.2 µM (inactive)

---

# System: UACC-257
# experimentSummary: NCI tumour cell line growth inhibition, 48 h
The source made the active and inactive calls. No stated cut-off is given here; in the data, active = GI50 up to about 1.1 µM and inactive = higher.
observable: GI50

According to the records, this compound CCN1CC(C)Cn2c(=O)[nH]c3cc(Br)cc1c32 (stereo not drawn) displays GI50 of 76 µM (inactive)

Noted for `COc1ccc(C[N+](C)(C)N)cc1OC` : its GI50 reads > 10 µM (inactive)

According to the records, this compound CO[C@]12CC(=O)C3(C(C[C@H]4CC5CC=C6C[C@@H](OC(C)=O)CC[C@]6(OC(C)=O)C5C[C@@]43C)C1)C1C[C@H]3[C@@H]4CC=C5C[C@@H](OC(C)=O)CC[C@]5(OC(C)=O)[C@H]4CC[C@]3(C)C12 (stereo partly drawn) displays GI50 of 23.6 µM (inactive)

`COc1ccc(-c2cc(-c3ccncc3)nc(N)c2-c2ccc(F)cc2)cc1` yielded GI50 of 24.2 µM (inactive)

Consider `Cc1sc2nc(-c3ccc([N+](=O)[O-])cc3)c(/C=N/N=C(N)N)n2c1C` . Its measured GI50 is 1.46 µM (inactive)

Reported GI50 for `CC(C)C/N=C(\N)N=C(N)N` was > 100 µM (inactive)

Briefly, GI50 measured for `COc1ccc2cc(Oc3ccc(Cl)cc3)c(=O)oc2c1` : > 100 µM (inactive)

Input `O=C(O)c1ccc(Oc2nc3ccccc3s2)cc1` . Output GI50: > 100 µM (inactive)

---

Give measured GI50 for each item. Keep answers brief.
# Test system: TK-10
# experimentSummary: NCI tumour cell line growth inhibition, 48 h
Activity calls are given as the source filed them. Cut-off read from the data, not from the text of the source: active = GI50 up to about 1.1 µM and inactive = higher.

Lab entry: TK-10 assay, compound Cc1cc(S(=O)(=O)Nc2nc(N)nc(N3N=CCC3C)n2)c(SCC(=O)O)cc1Cl (stereo not given) , GI50 = > 10 µM (inactive)

Kindly note: TK-10, COC(=O)/C=C1\C(=O)C=C2[C@@H]3C[C@H]4C[C@H](CC[C@@]4(C)N21)C3(C)NC(C)=O (stereo not given in full) , GI50 value reported: 15.7 µM (inactive)

Note to self: GI50 of `O=C(NCCN1CCCC1)c1cn2c(ccc3sc4ccccc4c(=O)c32)n1` with TK-10 was 12.5 µM (inactive)

// assay TK-10, entry `NS(=O)(=O)c1c(O)c2ccccc2oc1=O` , GI50 value = > 100 µM (inactive)

Value (GI50, TK-10) for record `CN(C)CCCNC(=O)c1cc(NS(=O)(=O)c2ccc3c(c2)C(=O)c2ccccc2C3=O)cn1C` = 25.2 µM (inactive)
